# System: Enterococcus sp.
# METHOD SUMMARY: in vitro antibacterial evaluation, MIC by broth dilution
# Assay type: cell-based
# CONDITION DESCRIPTION: broth dilution, 18 hours at 35° C.

COMPOUND | STUDY TARGET | MIC Enterococcus faecalis (ATCC 29212)
N=C1NCC(C(O)C2NC(=O)C(Cc3ccc(OC4OC(CO)C(OC5OC6COC7(OC6C(O)C5O)C5CC6CC(C5)CC7C6)C(O)C4O)cc3)NC(=O)C(Cc3ccccc3)NC(=O)CNC(=O)C(CO)NC(=O)C(C(O)C3CNC(=N)N3C3OC(CO)C(O)C(O)C3O)NC2=O)N1 (centres unmarked) [Example 220] | Enterococcus sp. | 2 µg/mL
Cc1ccc(COCC2OC(OC3C(CO)OC(Oc4ccc(CC5NC(=O)C(C(C)c6ccccc6)NC(=O)CNC(=O)C(CO)NC(=O)C(C(O)C6CNC(=N)N6C6OC(CO)C(O)C(O)C6O)NC(=O)C(C(O)C6CNC(=N)N6)NC5=O)cc4)C(O)C3O)C(O)C(O)C2O)cc1 (centres unmarked) [Example 234] | Enterococcus sp. | 8 µg/mL
CC(c1ccccc1)C1NC(=O)CNC(=O)C(CO)NC(=O)C(C(O)C2CN(Cc3ccccc3)C(=N)N2C2OC(CO)C(O)C(O)C2O)NC(=O)C(C(O)C2CNC(=N)N2)NC(=O)C(Cc2ccc(OC3OC(CO)C(OC4OC(CO)C(O)C(O)C4O)C(O)C3O)cc2)NC1=O (centres unmarked) [Example 59] | Enterococcus sp. | >128 µg/mL
CC(c1ccccc1)C1NC(=O)CNC(=O)C(CO)NC(=O)C(C(O)C2CNC(=N)N2C2OC(CO)C(O)C(O)C2O)NC(=O)C(C(O)C2CNC(=N)N2)NC(=O)C(Cc2ccc(OC3OC(CO)C(OC4OC(CO)C(O)C(OCc5ccc(OCc6ccccc6)cc5)C4O)C(O)C3O)cc2)NC1=O (centres unmarked) [Example 231c] | Enterococcus sp. | 4 µg/mL
CCCCCCC(=O)OCC1OC(OC2C(CO)OC(Oc3ccc(CC4NC(=O)C(C(C)c5ccccc5)NC(=O)CNC(=O)C(CO)NC(=O)C(C(O)C5CNC(=N)N5C5OC(CO)C(O)C(O)C5O)NC(=O)C(C(O)C5CNC(=N)N5)NC4=O)cc3)C(O)C2O)C(O)C(O)C1O (centres unmarked) [Example 97b] | Enterococcus sp. | 4 µg/mL
CC(c1ccccc1)C1NC(=O)CNC(=O)C(CO)NC(=O)C(C(O)C2CN(Cc3ccc(C(C)(C)C)cc3)C(=N)N2C2OC(CO)C(O)C(O)C2O)NC(=O)C(C(O)C2CNC(=N)N2)NC(=O)C(Cc2ccc(OC3OC(CO)C(OC4OC5COC6(OC5C(O)C4O)C4CC5CC(C4)CC6C5)C(O)C3O)cc2)NC1=O (centres unmarked) [Example 77] | Enterococcus sp. | 16 µg/mL
CC(c1ccccc1)C1NC(=O)CNC(=O)C(CO)NC(=O)C(C(O)C2CNC(=N)N2C2OC(CO)C(O)C(O)C2O)NC(=O)C(C(O)C2CNC(=N)N2)NC(=O)C(Cc2ccc(OC3OC(CO)C(OC4OC(CO)C(O)C(O)C4OCc4ccc(OCc5ccccc5)cc4)C(O)C3O)cc2)NC1=O (centres unmarked) [Example 231b] | Enterococcus sp. | 8 to 128 µg/mL
CC(c1ccccc1)C1NC(=O)CNC(=O)C(CO)NC(=O)C(C(O)C2CNC(=N)N2C2OC(CO)C(O)C(O)C2O)NC(=O)C(C(O)C2CNC(=N)N2)NC(=O)C(Cc2ccc(OC3OC(CO)C(OC4OC5COC6(CCCCC6(C)C)OC5C(O)C4O)C(O)C3O)cc2)NC1=O (centres unmarked) [Example 205] | Enterococcus sp. | 2 µg/mL
CN=C1N(C)CC(CC2NC(=O)C(Cc3ccc(OC4OC(CO)C(OC5OC(CO)C(O)C(O)C5O)C(O)C4O)cc3)NC(=O)C(C(C)c3ccccc3)NC(=O)CNC(=O)C(CO)NC(=O)C(CC3CN(C)C(=NC)N3C3OC(CO)C(O)C(O)C3O)NC2=O)N1C (centres unmarked) [Example 74] | Enterococcus sp. | >128 µg/mL
CC(c1ccccc1)C1NC(=O)CNC(=O)C(CO)NC(=O)C(CC2CNC(=N)N2C2OC(CO)C(O)C(O)C2O)NC(=O)C(CC2CNC(=N)N2)NC(=O)C(Cc2ccc(OC3OC(CO)C(OC4OC(CO)C(O)C(O)C4OCc4ccc(OCc5ccccc5)cc4)C(O)C3O)cc2)NC1=O (centres unmarked) [Example 246c] | Enterococcus sp. | >128 µg/mL
CN=C1N(C)CC(C(O)C2NC(=O)C(Cc3ccc(OC4OC(CO)C(OC5OC6COC7(OC6C(O)C5O)C5CC6CC(C5)CC7C6)C(O)C4O)cc3)NC(=O)C(C(C)c3ccccc3)NC(=O)CNC(=O)C(CO)NC(=O)C(C(O)C3CN(C)C(=NC)N3C3OC(CO)C(O)C(O)C3O)NC2=O)N1C (centres unmarked) [Example 81] | Enterococcus sp. | >128 µg/mL
COc1ccc2cc(COCC3OC(OC4C(CO)OC(Oc5ccc(CC6NC(=O)C(C(C)c7ccccc7)NC(=O)CNC(=O)C(CO)NC(=O)C(C(O)C7CNC(=N)N7C7OC(CO)C(O)C(O)C7O)NC(=O)C(C(O)C7CNC(=N)N7)NC6=O)cc5)C(O)C4O)C(O)C(O)C3O)ccc2c1 (centres unmarked) [Example 230] | Enterococcus sp. | 8 µg/mL
CCCCCC(=O)OCC1OC(N2C(=N)NCC2C(O)C2NC(=O)C(C(O)C3CNC(=N)N3)NC(=O)C(Cc3ccc(OC4OC(CO)C(OC5OC(CO)C(O)C(O)C5O)C(O)C4O)cc3)NC(=O)C(C(C)c3ccccc3)NC(=O)CNC(=O)C(CO)NC2=O)C(O)C(O)C1O (centres unmarked) [Example 95] | Enterococcus sp. | >64 µg/mL
CC(c1ccccc1)C1NC(=O)CNC(=O)C(CO)NC(=O)C(C(O)C2CNC(=N)N2C2OC(CO)C(O)C3OC(C)(C)OC32)NC(=O)C(C(O)C2CNC(=N)N2)NC(=O)C(Cc2ccc(OC3OC(CO)C(OC4OC5COC(C)(C)OC5C5OC(C)(C)OC45)C4OC(C)(C)OC34)cc2)NC1=O (centres unmarked) [Example 229b] | Enterococcus sp. | >128 µg/mL

---

# Test system: Staphylococcus sp.
# METHOD SUMMARY: in vitro antibacterial evaluation, MIC by broth dilution
# Type: cell-based
# CONDITION DESCRIPTION: broth dilution, 18 hours at 35° C.
READOUT NAME: MIC Coagulase Negative Staphylococcus (GC 4551) (µg/mL)

COMPOUND | BOUND OPERATOR | RECORDED MEASUREMENT
COc1ccc2cc(COCC3OC(OC4C(CO)OC(Oc5ccc(CC6NC(=O)C(C(C)c7ccccc7)NC(=O)CNC(=O)C(CO)NC(=O)C(C(O)C7CNC(=N)N7C7OC(CO)C(O)C(O)C7O)NC(=O)C(C(O)C7CNC(=N)N7)NC6=O)cc5)C(O)C4O)C(O)C(O)C3O)ccc2c1 (centres unmarked) | = | 2
CCCCCNC(=O)OC1C(CO)OC(OC2C(CO)OC(Oc3ccc(CC4NC(=O)C(C(C)c5ccccc5)NC(=O)CNC(=O)C(CO)NC(=O)C(C(O)C5CNC(=N)N5C5OC(CO)C(O)C(O)C5O)NC(=O)C(C(O)C5CNC(=N)N5)NC4=O)cc3)C(O)C2O)C(O)C1O (centres unmarked) | > | 64

---

# Test system: Staphylococcus sp.
# METHOD SUMMARY: in vitro antibacterial evaluation, MIC by broth dilution
# Format: cell-based
# CONDITION DESCRIPTION: broth dilution, 18 hours at 35° C.
A collection of compounds and their measured MIC Coagulase Negative Staphylococcus (GC 4547)
READOUT NAME: MIC Coagulase Negative Staphylococcus (GC 4547) (µg/mL)

COMPOUND | BOUND OPERATOR | RECORDED MEASUREMENT
COc1ccc2cc(COC3C(CO)OC(OC4C(CO)OC(Oc5ccc(CC6NC(=O)C(C(C)c7ccccc7)NC(=O)CNC(=O)C(CO)NC(=O)C(CC7CNC(=N)N7C7OC(CO)C(O)C(O)C7O)NC(=O)C(CC7CNC(=N)N7)NC6=O)cc5)C(O)C4O)C(O)C3O)ccc2c1 (centres unmarked) [Example 245a] | = | 2
CCCCCC(=O)OCC1OC(N2C(=N)NCC2C(O)C2NC(=O)C(C(O)C3CNC(=N)N3)NC(=O)C(Cc3ccc(OC4OC(CO)C(OC5OC(CO)C(O)C(O)C5O)C(O)C4O)cc3)NC(=O)C(C(C)c3ccccc3)NC(=O)CNC(=O)C(CO)NC2=O)C(O)C(O)C1O (centres unmarked) [Example 95] | > | 64
CC(c1ccccc1)C1NC(=O)CNC(=O)C(CO)NC(=O)C(C(O)C2CN(c3nc4ccccc4s3)C(=N)N2C2OC(CO)C(O)C(O)C2O)NC(=O)C(C(O)C2CNC(=Nc3nc4ccccc4s3)N2)NC(=O)C(Cc2ccc(OC3OC(CO)C(OC4OC(CO)C(O)C(O)C4O)C(O)C3O)cc2)NC1=O (centres unmarked) [Example 94] | > | 64
CC(c1ccccc1)C1NC(=O)CNC(=O)C(CO)NC(=O)C(C(O)C2CNC(=N)N2C2OC(CO)C(O)C(O)C2O)NC(=O)C(C(O)C2CNC(=N)N2)NC(=O)C(Cc2ccc(OC3OC(CO)C(OC4OC(CO)C(O)C(OCc5ccc(OCc6ccccc6)cc5)C4O)C(O)C3O)cc2)NC1=O (centres unmarked) [Example 231c] | = | 2
CC(c1ccccc1)C1NC(=O)CNC(=O)C(CO[Si](C)(C)C(C)(C)C)NC(=O)C(C(O)C2CNC(=N)N2C2OC3COC(C)(C)OC3C3OC(C)(C)OC32)NC(=O)C(C(O)C2CNC(=N)N2)NC(=O)C(Cc2ccc(O)cc2)NC1=O (centres unmarked) [Example 248] | = | 16
